# measured on: NAMPT (Homo sapiens, UniProt P43490)
# Sequence (P43490 whole entry): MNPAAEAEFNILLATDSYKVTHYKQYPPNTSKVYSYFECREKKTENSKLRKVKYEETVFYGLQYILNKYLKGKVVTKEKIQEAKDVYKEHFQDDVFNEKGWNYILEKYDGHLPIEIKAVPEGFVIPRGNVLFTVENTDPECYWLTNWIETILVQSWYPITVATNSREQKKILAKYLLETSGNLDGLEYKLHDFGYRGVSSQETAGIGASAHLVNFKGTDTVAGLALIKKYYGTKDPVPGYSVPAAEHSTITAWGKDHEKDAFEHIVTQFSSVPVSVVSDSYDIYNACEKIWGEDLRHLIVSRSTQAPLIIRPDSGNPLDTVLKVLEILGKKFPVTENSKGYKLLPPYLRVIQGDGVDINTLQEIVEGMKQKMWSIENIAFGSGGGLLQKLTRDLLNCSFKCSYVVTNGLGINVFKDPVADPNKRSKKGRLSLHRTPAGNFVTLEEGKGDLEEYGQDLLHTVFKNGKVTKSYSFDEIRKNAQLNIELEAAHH
pIC50: −log10 of the molar value.
Respond with t for pIC50 values of 9 and above, f for values below.

// below: answered compounds
compound	measured on	assigned class
O=C(NCc1ccn2ccnc2c1)c1ccc(C2CCN(C(=O)Cc3cc(F)cc(F)c3)C2)s1 (centres unmarked)	NAMPT (Homo sapiens, UniProt P43490)	t
CC(C)(O)C(=O)N1CCC(c2ccc(C(=O)NCc3ccn4ccnc4c3)cc2)CC1	NAMPT (Homo sapiens, UniProt P43490)	t

Hello, I need to know if O=C(NCc1ccn2ccnc2c1)c1ccc(C2CN(C(=O)c3cscn3)C2)cc1 has measured pIC50 not below 9. Thanks!
t

Hello, I need to know if O=C(CC1CCCC1)Nc1ccc(NC(=O)NCc2ccn3ncnc3c2)cc1 has measured pIC50 not below 9. Thanks!
f

Hello, I need to know if CCOCC(=O)Nc1ccc(NC(=O)Nc2ccc3nccn3c2)cc1 has measured pIC50 not below 9. Thanks!
t

src = patent US9187472B2
